Where do these numbers come from? They come from patent US11186564B2.

target.or.system: recombinant human serotonin receptor 5-HT2A (Homo sapiens)
Construct: expressed in transfected cells; method B: loaded with Ca2+ dye
Sequence (P28223 whole entry): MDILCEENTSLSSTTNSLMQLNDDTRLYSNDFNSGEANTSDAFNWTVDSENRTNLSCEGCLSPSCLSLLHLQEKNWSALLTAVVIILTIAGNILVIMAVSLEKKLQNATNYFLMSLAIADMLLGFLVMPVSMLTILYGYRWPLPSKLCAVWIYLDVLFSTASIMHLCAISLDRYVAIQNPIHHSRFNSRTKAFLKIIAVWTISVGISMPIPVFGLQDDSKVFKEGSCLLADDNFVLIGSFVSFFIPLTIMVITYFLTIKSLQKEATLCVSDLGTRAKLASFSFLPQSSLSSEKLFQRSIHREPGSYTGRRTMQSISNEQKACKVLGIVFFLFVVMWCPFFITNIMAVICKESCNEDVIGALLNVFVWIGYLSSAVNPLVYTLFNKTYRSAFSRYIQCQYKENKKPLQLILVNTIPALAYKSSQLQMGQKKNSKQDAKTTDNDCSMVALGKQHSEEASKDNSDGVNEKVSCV
test.summary: 5-HT2A antagonist Ca2+ assay in CHO-K1 cells (method A aequorin luminescence / method B FLIPR fluorescence)
Type: cell-based
particulars: antagonist mode vs EC80 of reference agonist, method A or B, read-out: 5HT2A IC50
# key: entry, value: IC50

COc1ccccc1OC1CCN(CC2(C)CCc3ccccc32)CC1 (stereo not drawn) = > 10 µM
c1ccc(CCN2C[C@@H]3C[C@H]2CN3c2ccccc2)cc1 = > 14.5 µM

Now for another entry.
Challenge: Requested field: IC50. Item: OC(COC1CCCCC1)CN1CCN(Cc2ccccc2)CC1 (stereo not drawn)
Response given: > 4.2 µM
